// reported IC50 for each item listed
# ASSAYED_SYSTEM: OC43 Mpro (Human coronavirus OC43, UniProt P0C6X6)
# Sequence (P0C6X6 3247-3549): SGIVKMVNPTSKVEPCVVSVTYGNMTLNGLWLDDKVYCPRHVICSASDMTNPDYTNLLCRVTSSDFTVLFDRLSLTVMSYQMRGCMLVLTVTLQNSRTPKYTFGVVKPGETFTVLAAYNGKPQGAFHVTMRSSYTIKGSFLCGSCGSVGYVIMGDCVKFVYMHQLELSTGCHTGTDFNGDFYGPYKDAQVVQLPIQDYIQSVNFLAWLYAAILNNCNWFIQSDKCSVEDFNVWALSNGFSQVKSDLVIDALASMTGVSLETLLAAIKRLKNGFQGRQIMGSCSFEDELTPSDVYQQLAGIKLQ
# ASSAY: OC43 Mpro enzymatic assay
# Format: biochemical, HCoV OC43
# ASSAY_CONDITIONS: Table 5

C[C@@H](OC1(C#N)CC1)[C@H](NC(=O)C(F)(F)F)C(=O)N1C[C@H]2[C@@H]([C@H]1C(=O)N[C@H](C#N)C[C@@H]1CC(C)(C)NC1=O)C2(C)C: < 2000 nM
C[C@@H](OC1CCC1)[C@H](NC(=O)C(F)(F)F)C(=O)N1C[C@H]2[C@@H]([C@H]1C(=O)N[C@H](C#N)C[C@@H]1CC3(CC3)NC1=O)C2(C)C: < 2000 nM

Now take the following molecule into account.
Q: Endpoint output: IC50 of `C[C@@H](OC(C)(C)C)[C@H](NC(=O)C(F)(F)F)C(=O)N1C[C@H]2[C@@H]([C@H]1C(=O)N[C@H](C#N)C[C@@H]1CC3(CC3)NC1=O)C2(C)C` . Value?
Result: < 2000 nM

----------
// reported IC50 for each item listed
# ASSAYED_SYSTEM: SARS-COV2 Mpro (Severe acute respiratory syndrome coronavirus 2)
# ASSAY: COVID-19 (nCoV-2019, SARS-CoV2) Mpro enzymatic assay
# Format: biochemical

Cc1cc(C(=O)N[C@@H](Cc2cccc3ccccc23)C(=O)N[C@@H](CC2CC2)C(=O)N[C@H](C#N)C[C@@H]2CCCNC2=O)no1 [Compound 111]: 2 to 10 µM
Cc1cc(C(=O)N[C@@H](Cc2cccc3ccccc23)C(=O)N[C@@H](CC2CC2)C(=O)N[C@H](C#N)C[C@@H]2CCNC2=O)no1 [Compound 121]: 2 to 10 µM

Q: Endpoint output: IC50 of N#C[C@H](C[C@@H]1CCCNC1=O)NC(=O)[C@H](CC1CC1)NC(=O)[C@H](Cc1cccc2ccccc12)NC(=O)OCc1ccccc1 [Compound 116] . Value?
Result: < 2 µM

Q: Endpoint output: IC50 of CC1(C)C[C@@H](C[C@@H](C#N)NC(=O)[C@H](CC2CC2)NC(=O)[C@H](Cc2cccc3ccccc23)NC(=O)c2cnccn2)C(=O)N1 [Compound 118] . Value?
Result: 2 to 10 µM

Q: Endpoint output: IC50 of COCCOC(=O)N[C@H](C(=O)N1C[C@H]2[C@@H]([C@H]1C(=O)N[C@H](C#N)C[C@@H]1CC3(CC3)NC1=O)C2(C)C)C(C)(C)C [Compound 133] . Value?
Result: < 2 µM

Q: Endpoint output: IC50 of N#C[C@H](C[C@@H]1CC2(CC2)NC1=O)NC(=O)[C@H](CC1CC1)NC(=O)[C@H](Cc1cccc2ccccc12)NC(=O)OCc1ccccc1 [Compound 110] . Value?
Result: < 2 µM

----------
# ASSAYED_SYSTEM: OC43 Mpro (Human coronavirus OC43, UniProt P0C6X6)
# ASSAY: OC43 Mpro enzymatic assay
# Type: biochemical, HCoV OC43
# ASSAY_CONDITIONS: Table 5
# Protocol: Compounds were assayed using standard methods to assess compound activity and IC50. As an exemplary for assessment of the SARS-COV2 Mpro, the C-His6-tagged Mpro (NC_045512) was cloned, expressed in E. coli and purified. […] IC50 values of compounds were calculated with the GraphPad Prism software using the nonlinear regression model of log(inhibitor) vs. response—Variable slope (four parameters). […]
pIC50: −log10 of the molar value.
// reported pIC50 for each item listed

In the examples that follow, each entry is paired with its recorded pIC50.
C[C@@H](OC(C)(C)C(F)(F)F)[C@H](NC(=O)C(F)(F)F)C(=O)N1C[C@H]2[C@@H]([C@H]1C(=O)N[C@H](C#N)C[C@@H]1CC3(CC3)NC1=O)C2(C)C: > 5.70
CO[C@H](C)[C@H](NC(=O)C(F)(F)F)C(=O)N1C[C@H]2[C@@H]([C@H]1C(=O)N[C@H](C#N)C[C@@H]1CC(C)(C)NC1=O)C2(C)C: > 5.70

Q: Endpoint output: pIC50 of `C[C@@H](OC1(C)CCC1)[C@H](NC(=O)C(F)(F)F)C(=O)N1C[C@H]2[C@@H]([C@H]1C(=O)N[C@H](C#N)C[C@@H]1CC3(CC3)NC1=O)C2(C)C` . Value?
Result: > 5.70

Q: Endpoint output: pIC50 of `C[C@H](OC(C)(C)C)[C@H](NC(=O)C(F)(F)F)C(=O)N1C[C@H]2[C@@H]([C@H]1C(=O)N[C@H](C#N)C[C@@H]1CC3(CC3)NC1=O)C2(C)C` . Value?
Result: > 5.70

Q: Endpoint output: pIC50 of C[C@@H](OC1CC1)[C@@H](NC(=O)C(F)(F)F)C(=O)N1C[C@H]2[C@@H]([C@H]1C(=O)N[C@H](C#N)C[C@@H]1CC(C)(C)NC1=O)C2(C)C (single isomer, unassigned) [Compound 298a] . Value?
Result: > 5.70

----------
# ASSAYED_SYSTEM: SARS-COV2 Mpro (Severe acute respiratory syndrome coronavirus 2, UniProt P0DTD1)
# ASSAY: COVID-19 (nCoV-2019, SARS-CoV2) Mpro enzymatic assay
# Format: biochemical
# ASSAY_CONDITIONS: read-out: COVID-19 Mpro IC50; Table 3
PROPERTY_LABEL: IC50

Q: Endpoint output: IC50 of CC(C)(C)[C@H](NC(=O)c1cnccn1)C(=O)N1C[C@H]2[C@@H]([C@H]1C(=O)N[C@H](C#N)C[C@@H]1CCNC1=O)C2(C)C (single isomer, unassigned) [101 Isomer 2] . Value?
Result: < 2000 nM

----------
// reported IC50 for each item listed
# ASSAYED_SYSTEM: SARS-COV2 Mpro (Severe acute respiratory syndrome coronavirus 2, UniProt P0DTD1)
# ASSAY: COVID-19 (nCoV-2019, SARS-CoV2) Mpro enzymatic assay
# Format: biochemical
# ASSAY_CONDITIONS: Table 3; read-out: COVID-19 Mpro IC50

CC1(C)C[C@@H](C[C@@H](C#N)NC(=O)[C@@H]2[C@@H]3[C@H](CN2C(=O)[C@@H](NC(=O)C(F)(F)F)C2CCC(C)(C)O2)C3(C)C)C(=O)N1 (stereo partly drawn) [Compound 328]: < 2000 nM
CC(C)(C)[C@H](NC(=O)C(F)(F)F)C(=O)N1C[C@H]2[C@@H]([C@H]1C(=O)N[C@H](C#N)C[C@@H]1CC3(CCC3)NC1=O)C2(C)C [Compound 362]: < 2000 nM

Now take the following compound into account.
Q: Endpoint output: IC50 of CC1(C)C[C@@H](C[C@@H](C#N)NC(=O)[C@@H]2[C@@H]3[C@H](CN2C(=O)C2(NC(=O)C(F)(F)F)CCC2)C3(C)C)C(=O)N1 [Compound 316] . Value?
Result: < 2000 nM

----------
# ASSAYED_SYSTEM: UniProt P0C6X6
# ASSAY: OC43 Mpro enzymatic assay
# Format: biochemical, HCoV OC43
# ASSAY_CONDITIONS: Table 3
PROPERTY_LABEL: IC50

CC(C)(C)[C@H](N)C(=O)N1C[C@H]2[C@@H]([C@H]1C(=O)N[C@H](C#N)C[C@@H]1CC3(CC3)NC1=O)C2(C)C: < 2000 nM
CC1(C)[C@@H]2[C@@H](C(=O)N[C@H](C#N)C[C@@H]3CC4(CC4)NC3=O)N(C(=O)C(NC(=O)C(F)(F)F)C3CCC3)C[C@@H]21 (single isomer, unassigned) [372 Isomer 2]: < 2000 nM
C[C@@H](OC1CC(F)(F)C1)[C@H](NC(=O)C(F)(F)F)C(=O)N1C[C@H]2[C@@H]([C@H]1C(=O)N[C@H](C#N)C[C@@H]1CC(C)(C)NC1=O)C2(C)C: < 2000 nM
CN(C(=O)[C@@H](NC(=O)c1cnccn1)C(C)(C)C)[C@@H](CC1CC1)C(=O)N[C@H](C#N)C[C@@H]1CCCNC1=O: 10000 to 30000 nM

Now take the following molecule into account.
Q: Endpoint output: IC50 of CC(C)(C)[C@H](NC(=O)OC1CC(F)(F)C1(F)F)C(=O)N1C[C@H]2[C@@H]([C@H]1C(=O)N[C@H](C#N)C[C@@H]1CC3(CC3)NC1=O)C2(C)C (single isomer, unassigned) [273 Isomer 1] . Value?
Result: < 2000 nM

----------
# ASSAYED_SYSTEM: OC43 Mpro (Human coronavirus OC43, UniProt P0C6X6)
# ASSAY: OC43 Mpro enzymatic assay
# Type: biochemical, HCoV OC43
# ASSAY_CONDITIONS: Table 5
# Method: Compounds were assayed using standard methods to assess compound activity and IC50. As an exemplary for assessment of the SARS-COV2 Mpro, the C-His6-tagged Mpro (NC_045512) was cloned, expressed in E. coli and purified. […] IC50 values of compounds were calculated with the GraphPad Prism software using the nonlinear regression model of log(inhibitor) vs. response—Variable slope (four parameters). […]
// reported IC50 for each item listed

C[C@@H](OC(C)(C)C(F)(F)F)[C@H](NC(=O)C(F)(F)F)C(=O)N1C[C@H]2[C@@H]([C@H]1C(=O)N[C@H](C#N)C[C@@H]1CC(C)(C)NC1=O)C2(C)C [Compound 357]: < 2000 nM
C[C@@H](OC1CC1)[C@H](NC(=O)C(F)(F)F)C(=O)N1C[C@H]2[C@@H]([C@H]1C(=O)N[C@H](C#N)C[C@@H]1CC(C)(C)NC1=O)C2(C)C (single isomer, unassigned) [Compound 298]: < 2000 nM

Q: Endpoint output: IC50 of C[C@@H](OCC(F)(F)F)[C@H](NC(=O)C(F)(F)F)C(=O)N1C[C@H]2[C@@H]([C@H]1C(=O)N[C@H](C#N)C[C@@H]1CC(C)(C)NC1=O)C2(C)C [Compound 312] . Value?
Result: < 2000 nM
